FYI, the data here is from the RNAGym collection of RNA variant scans (doi:10.7554/elife.80360).

B1: Hairpin Ribozyme (parent)
chain: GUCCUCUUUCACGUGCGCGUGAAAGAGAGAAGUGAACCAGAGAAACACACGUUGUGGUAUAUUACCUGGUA

variants of: B1; test: self-cleavage, relative activity (ratio to wild type); higher = more cleavage; co-transcriptional
READOUT KIND: self-cleavage
Provide a numeric answer; units are not to be included.

Field: example entries. Status: answers known.
[[record]]
mutant_designation = "C12G A30C"
test_result = 0.0578

[[record]]
mutant_designation = "A23U U52C"
test_result = 0.677

[[record]]
mutant_designation = "U8C A28U"
test_result = 0.693

[[record]]
mutant_designation = "G34C C50G"
test_result = 1.45

[[record]]
mutant_designation = "G13C G21U"
test_result = 0.49


Answer with the recorded self-cleavage for the variant listed here: C3G A43U
0.111

Answer with the recorded self-cleavage for the variant listed here: G40A G51U
0.404

Answer with the recorded self-cleavage for the variant listed here: A43C U60A
0.162

Answer with the recorded self-cleavage for the variant listed here: G25U A59G
0.108

Answer with the recorded self-cleavage for the variant listed here: G42U A43G
0.102
